# Target System: T1, fibroblast activation protein (FAP) on FAP-expressing human WI-38 fibroblasts (human, UniProt Q12884 1-760)
# T1 construct: also called human FAP
# Protocol Summary: competitive FACS, WI-38 cells, vs Cy5 tracer m3; A = pIC50 >8.0
Numbered stars: 1 amine (or outer) side, 2 acyl side, 3 side chain; on linkers, the order of the positions; unused ones are H or OH. Bridge positions count the residues as written; N and C are the ends. Square brackets hold non-standard residues; d marks the D form. * marks the point of attachment. mXylylene = c1cc(C[*:1])cc(C[*:2])c1; Hexanoyl = CCCCCC(=O)*; βAla = NCCC(=O)O

# Binder, pIC50 Category (FACS)
measured = [
    ("Ac-MCPPTEFCDAFRD-NH2 (linker 2-8 via mXylylene; SMILES CSCC[C@H](NC(C)=O)C(=O)N[C@H]1CSCc2cccc(c2)CSC[C@@H](C(=O)N[C@@H](CC(=O)O)C(=O)N[C@@H](C)C(=O)N[C@@H](Cc2ccccc2)C(=O)N[C@@H](CCCNC(=N)N)C(=O)N[C@@H](CC(=O)O)C(N)=O)NC(=O)[C@H](Cc2ccccc2)NC(=O)[C@H](CCC(=O)O)NC(=O)[C@H]([C@@H](C)O)NC(=O)[C@@H]2CCCN2C(=O)[C@@H]2CCCN2C1=O, also called 3BP-3195) [Ac-Met-[Cys(3MeBn)-Pro-Pro-Thr-Glu-Phe-Cys]-Asp-Ala-Phe-Arg-Asp-NH2]", "> 8 pIC50"),
    ("Hexanoyl-CPPTEFC[βAla]-OH (linker 1-7 via mXylylene; SMILES CCCCCC(=O)N[C@H]1CSCc2cccc(c2)CSC[C@@H](C(=O)NCCC(=O)O)NC(=O)[C@H](Cc2ccccc2)NC(=O)[C@H](CCC(=O)O)NC(=O)[C@H]([C@@H](C)O)NC(=O)[C@@H]2CCCN2C(=O)[C@@H]2CCCN2C1=O, also called 3BP-3371) [Hex-[Cys(3MeBn)-Pro-Pro-Thr-Glu-Phe-Cys]-Bal-OH]", "> 8 pIC50"),
]
